B1: OAS1 (parent)
chain: LTVYAWERGSMKTHFNTAQGFRTV

Variants of: B1
Assay: protein stability index of a GFP-peptide fusion (GPS, HEK-293T) (PSI 1-6); higher = more stable;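 further: lentivirally expressed fusions sorted by FACS into six bins by GFP to DsRed ratio, PSI derived from sequencing read proportions per bin multiplied by bin number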
Conditions: c terminus: a fixed tail appended
Quick reference for protein stability index among some variants
Returns: the value as a bare number; no unit string appended.

Previously resolved entries follow.
sequence string: LTVYAWERLSMKTHFNTAQGFRTV [G9L]
protein stability index: 2.91
//
sequence string: LTVYAWERGSMKTHFNTAQIFRTV [G20I]
protein stability index: 3
//
sequence string: LTVKAWERGSMKTHFNTAQGFRTV [Y4K]
protein stability index: 2.16
//
sequence string: LTVYAWERGSMKTHFNTAQGFKTV [R22K]
protein stability index: 1.71
//
sequence string: LTVYAWERGSMKTHANTAQGFRTV [F15A]
protein stability index: 2.35

-- ask Entry DTVYAWERGSMKTHFNTAQGFRTV [L1D] has what protein stability index?
-- reply 2.26

-- ask Entry LTVYAWERGSMKTHFNTAQGLRTV [F21L] has what protein stability index?
-- reply 2.67

-- ask Entry LTVYDWERGSMKTHFNTAQGFRTV [A5D] has what protein stability index?
-- reply 2.59

-- ask Entry LTVYAWERGSMKTHFNTAQGFRTD [V24D] has what protein stability index?
-- reply 1.63

-- ask Entry LTVYAWERGSMKTHFVTAQGFRTV [N16V] has what protein stability index?
-- reply 3.22

-- ask Entry LTVYAWERGSMKTHFNTAMGFRTV [Q19M] has what protein stability index?
-- reply 3.27

-- ask Entry LTVLAWERGSMKTHFNTAQGFRTV [Y4L] has what protein stability index?
-- reply 2.55

-- ask Entry LTVYAAERGSMKTHFNTAQGFRTV [W6A] has what protein stability index?
-- reply 1.86

-- ask Entry LTVYAWERGSMKTHFWTAQGFRTV [N16W] has what protein stability index?
-- reply 3.85

-- ask Entry LTVYAWERGSMKTHPNTAQGFRTV [F15P] has what protein stability index?
-- reply 1.52

-- ask Entry LTVYAWERGSMKTHFNTAKGFRTV [Q19K] has what protein stability index?
-- reply 2.43

-- ask Entry LTEYAWERGSMKTHFNTAQGFRTV [V3E] has what protein stability index?
-- reply 2.09

-- ask Entry LDVYAWERGSMKTHFNTAQGFRTV [T2D] has what protein stability index?
-- reply 1.8
